Assayed target: human GLP-1 receptor (human, UniProt P43220 24-463)
Assay remarks: cell-based or functional assay
Positions of bridges follow the written chain, without caps; N, C: chain ends. Non-standard residues stand in square brackets, D forms with d. No end group written: not given here. *: point of attachment. Acetyl(2-(4-imidazolyl)) = O=C(Cc1c[nH]cn1)*; Aib = CC(C)(N)C(=O)O
Parameter measured: In vitro activity (%) compared with native peptide: vs GLP-1

Binder	Relation	Meas value
H[Aib]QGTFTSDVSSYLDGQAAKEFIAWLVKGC (not fully specified) [triple agonist of SEQ ID NO: 1]	=	3.2
{Acetyl(2-(4-imidazolyl))}-GEGTFTSDLSKYLDSRRQQLFVQWLKAGGPSSGAPPPSHG (not fully specified; also: ring from underlined residues, positions not shown) [triple agonist of SEQ ID NO: 11]	=	1.4
{Acetyl(2-(4-imidazolyl))}-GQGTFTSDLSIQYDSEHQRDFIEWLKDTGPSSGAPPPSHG (not fully specified; also: ring from underlined residues, positions not shown) [triple agonist of SEQ ID NO: 19]	<	0.1
H[Aib]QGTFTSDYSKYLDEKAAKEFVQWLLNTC (bridge 16-20; not fully specified) [triple agonist of SEQ ID NO: 29]	=	38.5
